Molecular target: RORγt-LBD (Homo sapiens)
Construct: leader […]; made in house; host or cells: BL21(DE3) E. coli
Sequence (P51449 259-518): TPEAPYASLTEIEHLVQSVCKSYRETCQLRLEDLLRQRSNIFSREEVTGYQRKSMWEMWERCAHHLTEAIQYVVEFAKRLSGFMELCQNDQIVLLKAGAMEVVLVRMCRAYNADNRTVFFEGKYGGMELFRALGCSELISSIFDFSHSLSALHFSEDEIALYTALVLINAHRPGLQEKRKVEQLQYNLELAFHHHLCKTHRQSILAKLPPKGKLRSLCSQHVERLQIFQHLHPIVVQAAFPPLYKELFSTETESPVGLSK
Experiment: RORγt-LBD SRC-1 cofactor FRET assay
Type: biochemical
Settings: mean±s.d.; read-out: SRC1 Cofactor FRET IC50
Measured property: pIC50
Conceptually, pIC50 converts a concentration in mol/L into minus its log10.

Exam item: Which pIC50 value belongs to CC1(C(=O)O)CC=C(c2nn(C(=O)c3c(Cl)cccc3C(F)(F)F)c3cccc(F)c23)CC1 (stereo not shown) ?
Marked response: 7.66

----------
Target: RXRg (Homo sapiens, UniProt P48443)
Test: Receptor reporter assay selectivity panel: RXRg
Measured property: EC50

Exam item: Give its EC50 value. Item: `O=C(O)c1ccc(-c2nn(C(=O)c3c(Cl)cccc3C(F)(F)F)c3cccc(F)c23)c(F)c1`
Marked response: > 30 µM
